# Target Under Test: Rhodesain (Trypanosoma brucei rhodesiense) (UniProt Q95PM0)
# Sequence (Q95PM0 1-450): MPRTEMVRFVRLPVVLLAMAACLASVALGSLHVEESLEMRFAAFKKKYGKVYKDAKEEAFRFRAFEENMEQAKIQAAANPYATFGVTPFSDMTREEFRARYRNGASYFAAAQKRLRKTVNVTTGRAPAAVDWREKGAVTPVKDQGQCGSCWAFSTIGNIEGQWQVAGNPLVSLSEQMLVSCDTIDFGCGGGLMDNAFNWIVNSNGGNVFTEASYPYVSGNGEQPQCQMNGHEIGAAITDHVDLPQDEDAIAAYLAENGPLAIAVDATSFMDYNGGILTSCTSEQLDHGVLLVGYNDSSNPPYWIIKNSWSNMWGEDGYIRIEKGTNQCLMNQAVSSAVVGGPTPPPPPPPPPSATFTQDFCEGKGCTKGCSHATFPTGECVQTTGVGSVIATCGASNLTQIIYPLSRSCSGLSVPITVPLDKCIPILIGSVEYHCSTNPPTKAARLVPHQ
# Protocol Text: Reversible inhibition of Trypanosoma brucei rhodesiense rhodesain assessed as enzyme activity recovery preincubated for 5 mins followed by substrate addition measured after 120 mins by dialysis assay relative to control
# Parameters: scale not given: the % may be the effect or the level left
Property Name: Activity (%)
Answers are plain numbers, in %.

Illustrative cases are given below, each with its answer.
Smiles Record: CC(C)C[C@@H](/C=C/[N+](=O)[O-])NC(=O)[C@H](CC(C)C)NC(=O)OCc1ccccc1
Activity, %: 49

Smiles Record: CC(C)C[C@@H](/C=C/[N+](=O)[O-])NC(=O)[C@H](Cc1ccccc1)NC(=O)OCc1ccccc1
Activity, %: 47

Batch lookup, Activity per entry.
1. CN1CCN(C(=O)N[C@@H](Cc2ccccc2)C(=O)N[C@H](/C=C/S(=O)(=O)c2ccccc2)CCc2ccccc2)CC1
2. CC(C)C[C@H](NC(=O)OCc1ccccc1)C(=O)N[C@H](/C=C/[N+](=O)[O-])CCc1ccccc1

[A]
3
110
